Molecular target: FXIIa (Homo sapiens, UniProt P00748)
Construct: gene F12; human FXIIa (Merck)
Sequence (P00748 373-615): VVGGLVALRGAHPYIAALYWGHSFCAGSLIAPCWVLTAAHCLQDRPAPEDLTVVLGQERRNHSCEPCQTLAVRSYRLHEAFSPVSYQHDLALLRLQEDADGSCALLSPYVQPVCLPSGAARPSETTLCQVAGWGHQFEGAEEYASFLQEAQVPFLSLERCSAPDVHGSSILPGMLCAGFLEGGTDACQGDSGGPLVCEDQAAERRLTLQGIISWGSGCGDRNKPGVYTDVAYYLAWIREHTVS
Conditions: n = 3; read-out: IC50 values toward FXIIa
pIC50: −log10 of the molar value.
quantity_measured: pIC50

Consider Aedes aegypti trypsin inhibitor, RSDAERGVCACPRIYMPVCGSNLKTYNNDCLLRCEINSDLGRANNLRKIADQACDNLTDNVNDFIPQEY (His-tagged) [Wild-type AaTI] . Its measured pIC50 is < 5.00

The measured values listed here are drawn from paper PMC9112662.
